The reported measurements were obtained from patent US20220073604A1.

Molecular target: T1, bacterially produced human IL-6 (human, UniProt P05231 30-212)
T1 construct: also called bactIL-6; prokaryotic IL-6
Assay: SPR; periplasmic fraction
readoutType: Ka (M⁻¹)
Field format: number, assumed M⁻¹, no unit text.

Look over these answered cases.
Fab 55C1 (Fab, V domains shown, VL-shuffled Fab of 29B11, periplasmic fraction; also called 55C1a) VH: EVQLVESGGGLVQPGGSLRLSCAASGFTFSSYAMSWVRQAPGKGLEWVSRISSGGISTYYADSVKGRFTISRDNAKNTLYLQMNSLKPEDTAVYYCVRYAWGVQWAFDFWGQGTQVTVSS VL: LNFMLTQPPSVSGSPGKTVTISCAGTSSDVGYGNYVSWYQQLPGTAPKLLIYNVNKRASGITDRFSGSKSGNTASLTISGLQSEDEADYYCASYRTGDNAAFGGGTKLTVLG; 7.6e+09
Fab 29B11 (Fab, V domains shown, Fab) VH: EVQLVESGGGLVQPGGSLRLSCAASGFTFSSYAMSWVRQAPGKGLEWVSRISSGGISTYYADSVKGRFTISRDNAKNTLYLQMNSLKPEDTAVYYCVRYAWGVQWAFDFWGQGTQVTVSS VL: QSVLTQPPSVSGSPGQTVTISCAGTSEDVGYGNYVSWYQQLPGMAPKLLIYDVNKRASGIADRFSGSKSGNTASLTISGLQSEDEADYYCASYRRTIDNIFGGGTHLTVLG; 1.91e+09

Consider the record given below.
Enquiry: Tell me the measured Ka of Fab 47C2 (Fab, V domains shown, VL-shuffled Fab of 29B11, periplasmic fraction; also called 47C2 (R4)) VH: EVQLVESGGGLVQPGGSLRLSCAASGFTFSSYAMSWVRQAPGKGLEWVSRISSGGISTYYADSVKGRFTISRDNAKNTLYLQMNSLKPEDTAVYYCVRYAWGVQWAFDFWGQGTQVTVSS VL: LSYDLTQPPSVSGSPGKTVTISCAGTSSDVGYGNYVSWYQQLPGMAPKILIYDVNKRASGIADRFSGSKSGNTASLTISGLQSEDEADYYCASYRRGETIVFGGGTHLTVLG , please.
Return: 3.56e+09
